# Tested on: LXRb homodimer (NR concentration 270 nM)
# experimentalDetails: PBM binding z-score (relative to random genomic background probes); higher = stronger binding; sequences stand for … in GC…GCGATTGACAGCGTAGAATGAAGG
This section presents sequences with their documented PBM binding z-score values.

Known results for sequences:
INSERT INTO measurements (recordsequence, valuereported) VALUES
  ('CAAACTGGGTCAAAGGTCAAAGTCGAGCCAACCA', 2.4),
  ('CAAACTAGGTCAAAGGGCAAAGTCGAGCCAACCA', 0.969),
  ('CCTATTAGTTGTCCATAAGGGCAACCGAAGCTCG', 1.17),
  ('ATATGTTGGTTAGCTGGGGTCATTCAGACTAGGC', 1.69),
  ('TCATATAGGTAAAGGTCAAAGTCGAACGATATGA', 2.62),
  ('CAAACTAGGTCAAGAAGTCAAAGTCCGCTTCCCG', 0.337),
  ('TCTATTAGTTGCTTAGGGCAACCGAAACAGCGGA', 0.556),
  ('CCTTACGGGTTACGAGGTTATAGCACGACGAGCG', -0.317),
  ('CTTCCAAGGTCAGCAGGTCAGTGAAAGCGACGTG', 0.067),
  ('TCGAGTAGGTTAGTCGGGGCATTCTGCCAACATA', -0.607);

Endpoint output: PBM binding z-score of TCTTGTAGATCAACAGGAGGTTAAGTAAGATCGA . Value?
-0.23

Endpoint output: PBM binding z-score of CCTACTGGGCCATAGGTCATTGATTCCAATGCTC . Value?
-0.227

Endpoint output: PBM binding z-score of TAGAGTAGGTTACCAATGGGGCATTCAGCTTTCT . Value?
1.02

Endpoint output: PBM binding z-score of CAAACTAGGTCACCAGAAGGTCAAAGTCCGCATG . Value?
1.41

Endpoint output: PBM binding z-score of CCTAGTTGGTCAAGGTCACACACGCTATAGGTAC . Value?
1.23

Endpoint output: PBM binding z-score of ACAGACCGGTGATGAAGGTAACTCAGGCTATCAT . Value?
-0.429

Endpoint output: PBM binding z-score of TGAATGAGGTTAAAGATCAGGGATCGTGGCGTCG . Value?
0.3

Endpoint output: PBM binding z-score of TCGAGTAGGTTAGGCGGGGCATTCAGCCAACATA . Value?
0.912

Endpoint output: PBM binding z-score of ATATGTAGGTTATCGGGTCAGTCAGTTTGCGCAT . Value?
1.49

Endpoint output: PBM binding z-score of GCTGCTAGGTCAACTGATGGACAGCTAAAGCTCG . Value?
0.0379
